Below, each entry is listed with its recorded protein stability index.
B1: FBXO39 (parent)
chain: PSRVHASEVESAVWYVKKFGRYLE

- Variants of: B1
- assay-details: protein stability index of a GFP-peptide fusion (GPS, HEK-293T) (PSI 1-6); higher = more stable;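 also: lentivirally expressed fusions sorted by FACS into six bins by GFP to DsRed ratio, PSI derived from sequencing read proportions per bin multiplied by bin number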
- experimental-context: c terminus: a fixed tail appended
measured-endpoint: protein stability index

1. Y15R	2.21
2. V9T	2.33
3. E8F	4.46
4. S11R	2.07
5. Y15P	2.61
6. E10P	2.04
7. V16P	2.54
8. L23G	1.48
9. A12N	3.01
10. V13F	1.45
11. A6N	1.74
12. Y22H	2.69
13. S7K	1.67
14. R21T	2.08
15. V9G	3.35
16. E8L	2.36
17. W14D	3.84
18. V4Q	2.21
19. V9E	3.31
20. E8R	3.41
21. R21S	2.22
22. E10A	1.64
23. V4R	1.8
24. E10K	2.21
25. S7F	1.97
26. Y22L	1.62
27. E10H	1.65
28. E8K	2.76
29. E8W	1.42
30. V4A	2.29
31. S7V	2.13
32. F19Y	2.5
33. V9L	1.83
34. S11H	2.08
35. S7G	1.66
36. Y15V	1.41
37. S11I	2.1
38. A6R	1.56
39. S11V	1.57
40. A12H	2.83
41. E10G	1.41
42. V9H	2.29
43. E24L	1.54
44. S11W	1.54
45. S7M	1.81
46. S11Y	2.07

Origin of values: the supplement of paper PMC10567573
